target: pentameric gH complex on infectious CMV (neutralization assays) (human cytomegalovirus); assay: cell-based or functional assay
MEASURE: EC50 Neutralizing

Any idea what EC50 Neutralizing was measured for 1-64 (antibody, V domains shown) VH: QVQLVASGGGLVKPGGSLRLSCAASGFTFSDYYMTWIRQAPGKGLEWVSYISSSGTTIYYADSVKGRFTVSRDNAKNSLFLQMNSLRAEDTALYYCARDSYSKLVDIEAIEAFDIWGQGTMVTVSS VL: SYELTQPPSVSVGPGRTARITCGANNIGSKSVHWYQQRPGQAPVLVISFDTDRPSGIPERFSGSNSGNTATLTISRVEAGDEADYFCQVWDRTSDHVVFGGGTKLTVL ?
1 ng/mL
